# MEASURED ON: integrin α5β1 (UniProt P08648 42-1049; P05556 21-798)
# Sequence (P08648 42-1049, chain 1 of 2): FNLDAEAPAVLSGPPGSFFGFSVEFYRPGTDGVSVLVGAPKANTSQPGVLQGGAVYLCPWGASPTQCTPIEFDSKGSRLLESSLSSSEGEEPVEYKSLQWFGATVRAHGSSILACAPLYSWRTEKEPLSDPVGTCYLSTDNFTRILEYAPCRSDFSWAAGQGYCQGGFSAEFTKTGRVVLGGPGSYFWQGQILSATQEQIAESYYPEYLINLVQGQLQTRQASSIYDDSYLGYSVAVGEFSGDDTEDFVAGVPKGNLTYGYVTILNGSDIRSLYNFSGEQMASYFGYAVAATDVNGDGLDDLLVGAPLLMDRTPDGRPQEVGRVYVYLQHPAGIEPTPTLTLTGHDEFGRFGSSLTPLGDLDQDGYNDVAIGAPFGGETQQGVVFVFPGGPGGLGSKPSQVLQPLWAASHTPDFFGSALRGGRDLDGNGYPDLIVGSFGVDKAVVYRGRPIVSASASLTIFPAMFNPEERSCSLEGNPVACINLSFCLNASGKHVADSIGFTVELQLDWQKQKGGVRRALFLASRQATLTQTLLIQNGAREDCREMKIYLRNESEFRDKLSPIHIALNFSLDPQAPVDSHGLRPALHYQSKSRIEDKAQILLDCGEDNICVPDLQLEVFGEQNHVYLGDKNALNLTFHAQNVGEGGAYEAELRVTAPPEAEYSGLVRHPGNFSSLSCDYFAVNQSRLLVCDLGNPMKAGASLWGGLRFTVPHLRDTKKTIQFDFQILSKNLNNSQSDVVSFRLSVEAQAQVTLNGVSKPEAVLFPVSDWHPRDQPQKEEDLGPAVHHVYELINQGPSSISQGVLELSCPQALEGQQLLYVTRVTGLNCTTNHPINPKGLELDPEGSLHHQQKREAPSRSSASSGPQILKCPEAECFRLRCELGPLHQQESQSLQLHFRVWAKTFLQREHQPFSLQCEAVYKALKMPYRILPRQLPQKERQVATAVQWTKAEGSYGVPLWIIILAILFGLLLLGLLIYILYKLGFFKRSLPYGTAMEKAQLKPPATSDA
# Sequence (P05556 21-798, chain 2 of 2): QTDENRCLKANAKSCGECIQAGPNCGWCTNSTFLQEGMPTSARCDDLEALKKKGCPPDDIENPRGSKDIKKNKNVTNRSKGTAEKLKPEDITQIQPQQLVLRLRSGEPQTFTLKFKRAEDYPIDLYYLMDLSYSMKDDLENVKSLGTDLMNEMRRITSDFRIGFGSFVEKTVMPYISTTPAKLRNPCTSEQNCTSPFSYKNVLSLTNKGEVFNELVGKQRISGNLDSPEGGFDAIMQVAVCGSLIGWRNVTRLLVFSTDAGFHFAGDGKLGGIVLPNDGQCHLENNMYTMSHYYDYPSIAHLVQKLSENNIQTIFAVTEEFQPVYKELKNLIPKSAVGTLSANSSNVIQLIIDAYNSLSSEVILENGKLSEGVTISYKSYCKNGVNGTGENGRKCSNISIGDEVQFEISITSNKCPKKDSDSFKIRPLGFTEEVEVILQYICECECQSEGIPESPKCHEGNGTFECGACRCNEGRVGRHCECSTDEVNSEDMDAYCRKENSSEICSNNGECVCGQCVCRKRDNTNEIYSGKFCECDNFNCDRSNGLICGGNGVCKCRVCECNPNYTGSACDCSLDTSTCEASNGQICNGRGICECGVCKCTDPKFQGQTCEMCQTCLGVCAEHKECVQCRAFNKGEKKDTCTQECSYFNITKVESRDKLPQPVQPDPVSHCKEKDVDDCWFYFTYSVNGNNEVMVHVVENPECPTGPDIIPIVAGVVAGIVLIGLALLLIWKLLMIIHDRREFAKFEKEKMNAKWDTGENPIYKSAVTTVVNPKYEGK
# TEST SUMMARY: cell-based or functional assay
MEASUREMENT TYPE: percentage of inhibition, cell adhesion assay (%)
The answer is to be given in %; state only the numeric part.

## Task Look at this binder and give its reported percentage of inhibition, cell adhesion assay. FNIII 10 C-X7-C (SEQ ID NO: 10, VCARGDNPDCSK) (designed binder) HHHHHHVSDVPRDLEVVAATPTSLLISWDAPAVTVRYYRITYGETGGNSPVQEFTVPGSKSTATISGLKPGVDYTITVYAVCARGDNPDCSKPISINYRT
## Result 0

## Task Look at this binder and give its reported percentage of inhibition, cell adhesion assay. FNIII 10 C-X7-C (SEQ ID NO: 8, VCPRGDWNECSK) (designed binder, Engineered intradomain disulfide bond Cys1491-Cys1499; exact N-terminus uncertain) HHHHHHVSDVPRDLEVVAATPTSLLISWDAPAVTVRYYRITYGETGGNSPVQEFTVPGSKSTATISGLKPGVDYTITVYAVCPRGDWNECSKPISINYRT
## Result 48

Reference source for all entries: patent US20150218251A1
